- testTarget: D(2) dopamine receptor (Homo sapiens)
- experimentalProtocol: HTS Assay for Positive Allosteric Modulators of the Human D2 Dopamine Receptor: Primary Screen for Potentiators
- runConditions: HEK293 T-REx D2, calcium flux, EC20 dopamine potentiation; at 10 µM
Out of some 340,000 compounds screened, about 1,200 (0.35%) were called active.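 Rule for the calls: active = potentiation over 3 SD above the plate norm (cut at about 30% in these data); inactive = the rest.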 The entries come from a sample that favours actives as a whole.
Outcome field: choose from yes (1) = active, no (0) = inactive

- molecule: "O=C(Nc1ccc(S(=O)(=O)N2CCCCCC2)cc1)c1c(F)cccc1F"
  category: "no (0)"

Answer briefly: the call reported for CN1CCN(C2(CNC(=O)COc3ccc(C(C)(C)C)cc3)CCCCC2)CC1 in this assay.
no (0)

Item: CC(C)(C)NS(=O)(=O)c1ccc(NC(=O)NC2CCCCC2)cc1
yes (1)

Moving on to the next molecule: CCC(C)n1[nH]c(=O)c2c(C)cc(C)nc21 (stereo unspecified)
no (0)

// next record Cc1cc(C)c2oc(-c3cccc(NC(=O)c4cccc(F)c4)c3C)nc2c1
no (0)

Ok, now CC(C)(C)NS(=O)(=O)c1ccc(NC(=O)C2CCCO2)cc1 (stereo unspecified)
no (0)

How about this molecule: CCc1cc2c(=O)n(-c3ccccc3)c(SCC(=O)O)nc2s1
no (0)

====

- testTarget: D(2) dopamine receptor (Homo sapiens) (UniProt P14416)
- Sequence (P14416 whole entry, looked up): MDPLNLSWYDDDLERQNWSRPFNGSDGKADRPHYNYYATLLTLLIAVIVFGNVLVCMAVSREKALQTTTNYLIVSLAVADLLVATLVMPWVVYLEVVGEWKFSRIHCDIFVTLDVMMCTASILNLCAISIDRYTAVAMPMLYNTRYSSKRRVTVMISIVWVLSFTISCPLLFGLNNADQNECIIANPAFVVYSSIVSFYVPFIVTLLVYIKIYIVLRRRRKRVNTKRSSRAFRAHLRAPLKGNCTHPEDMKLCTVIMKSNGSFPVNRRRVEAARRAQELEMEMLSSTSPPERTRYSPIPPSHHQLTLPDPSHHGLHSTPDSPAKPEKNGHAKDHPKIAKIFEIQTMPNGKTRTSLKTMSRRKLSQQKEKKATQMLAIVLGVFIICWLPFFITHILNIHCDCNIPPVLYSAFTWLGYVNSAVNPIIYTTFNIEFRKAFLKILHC
- experimentalProtocol: HTS Assay for Positive Allosteric Modulators of the Human D2 Dopamine Receptor: Primary Screen for Potentiators
- runConditions: HEK293 T-REx D2, calcium flux, EC20 dopamine potentiation; at 10 µM; stronger effect = higher value
- Procedure: NIH Chemical Genomics Center [NCGC] NIH Molecular Libraries Probe Centers Network [MLPCN] […] Freshly passaged cells are plated in 1536 well black, clear bottom plates at a density of 4000 cells/well in 3 ul of complete media containing 1x tetracycline inducer. […] The plate is measured for kinetically at 1 cycle/sec for 180 seconds and is considered to be the agonist portion of the assay (eg, compounds which activate a positive calcium response during this portion are flagged as potential agonists). […]
The campaign covered roughly 340,000 compounds. About 1,200 (0.35%) were called active. The sample holds actives, similar compounds and a random draw of the others, so the mix is not that of the screen.
Items are presented alongside their recorded potentiation.
A number alone suffices; assume %.

The following compounds have reported results that may help.
- compound: "COc1ccc(Cn2ccnc2SCC(=O)Nc2ccc3c(c2)OCO3)cc1"
  reading: 1.53
- compound: "Cc1ccc(C2C=C(c3ccc(Cl)cc3)Nc3nc(NC(=O)CCC(=O)O)nn32)cc1 (stereo not given)"
  reading: 5.1
- compound: "Cc1cccc(OCCC(=O)Nc2cc(S(=O)(=O)N3CCCCC3)ccc2N2CCOCC2)c1"
  reading: 38.1
- compound: "Cn1c(=O)[nH]c(=O)c2c1nc(NCCc1ccccc1)n2Cc1ccc(F)cc1"
  reading: -10.3
- compound: "CCCCc1nn2c(=O)cc(COC(=O)c3ccccc3NC(=O)C(C)(C)C)nc2s1"
  reading: 9.21
- compound: "CN(C(=O)CSc1nnc(Nc2ccccc2)s1)C1CCS(=O)(=O)C1 (stereo not given)"
  reading: -2.37

Name the recorded potentiation for Cc1cccc(N2CCN(S(=O)(=O)c3ccc4[nH]c5c(c4c3)CCCCC5)CC2)c1C .
2.56

One more compound: Cc1c(Cl)cccc1NC(=O)Nc1ccc(C(=O)N2CCCC2)cc1
-6.53

# repeat for COc1ccc(C)cc1NC(=O)COCc1cc(-c2cccs2)on1
3.43

Now give it for O=C(NCc1cccc(Cl)c1)C1CCC(=O)N(C2CC2)C1 (stereo not given) too.
-9.09

====

- testTarget: D(2) dopamine receptor (Homo sapiens) (UniProt P14416)
- experimentalProtocol: HTS Assay for Positive Allosteric Modulators of the Human D2 Dopamine Receptor: Primary Screen for Potentiators
- runConditions: HEK293 T-REx D2, calcium flux, EC20 dopamine potentiation; at 10 µM; stronger effect = higher value
Screen size: about 340,000 compounds; about 1,200 (0.35%) were called active. This is one part of a sample in which actives are shown more often than they occur.
observable: potentiation (%)
The reply should be a number in %, with the unit left off.

Past entries and their recorded results:
- compound: "C=CCn1c(SCn2nnc3ccccc3c2=O)nnc1-c1ccc(Cl)cc1"
  potentiation / %: 3.09
- compound: "CCCN(CC(=O)Nc1ccccc1OC)C(=O)CCC(=O)c1ccc(F)cc1"
  potentiation / %: 30.4
- compound: "O=C(Nc1c(-c2ccc(F)cc2)nc2ccccn12)c1cccc(F)c1"
  potentiation / %: 12.9
- compound: "CCOC(=O)C1CCN(Cc2nnc(-c3cccc(Br)c3)o2)CC1"
  potentiation / %: -5.55
- compound: "CN(c1ccc(C(=O)NCCC2=CCCCC2)cc1)S(C)(=O)=O"
  potentiation / %: -10.3

Would you kindly share the measured potentiation for CCN(c1ccccc1)S(=O)(=O)c1cc(C(=O)NCc2ccccn2)ccc1C ?
-2.26

C=CCN1C(=O)C2(OCCCO2)c2cccc(Cl)c21 , same question.
9.19

Same read-out for Cc1ccc2nc(COc3cccc(NC(=O)Nc4ccc(C)c(Cl)c4)c3)cc(=O)n2c1 ?
-1.63

# repeat for Clc1ccc(C2CC(c3cccs3)n3ncnc3N2)cc1Cl (centres undefined)
-0.578

====

- testTarget: D(2) dopamine receptor (Homo sapiens) (UniProt P14416)
- experimentalProtocol: HTS Assay for Positive Allosteric Modulators of the Human D2 Dopamine Receptor: Primary Screen for Potentiators
- runConditions: HEK293 T-REx D2, calcium flux, EC20 dopamine potentiation; at 10 µM
- Experimental: NIH Chemical Genomics Center [NCGC] NIH Molecular Libraries Probe Centers Network [MLPCN] […] Freshly passaged cells are plated in 1536 well black, clear bottom plates at a density of 4000 cells/well in 3 ul of complete media containing 1x tetracycline inducer. […] The plate is measured for kinetically at 1 cycle/sec for 180 seconds and is considered to be the agonist portion of the assay (eg, compounds which activate a positive calcium response during this portion are flagged as potential agonists). […]
The campaign covered roughly 340,000 compounds. About 1,200 (0.35%) were called active.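 The calls were made as follows: active = potentiation over 3 SD above the plate norm (cut at about 30% in these data); inactive = the rest.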 The sample as a whole holds a higher share of actives than the screen did.
Respond only with the outcome that fits, drawn from 1 for active, 0 for inactive

Before answering, review these 2 worked examples.
- smilesCode: "Cn1nnnc1SCCNCc1ccc(Cl)c(Cl)c1"
  testTarget: "D(2) dopamine receptor (Homo sapiens) (UniProt P14416)"
  category: 0
- smilesCode: "CC1=CC(C)(C)NC(=S)N1c1ccccc1"
  testTarget: "D(2) dopamine receptor (Homo sapiens) (UniProt P14416)"
  category: 0

Okay, next one:
Hi team, can someone confirm the assay call for CCOC(=O)c1c(C)nc(-c2ccccc2)nc1NC(=O)C(C)C ?
1

====

Each entry below carries its reported potentiation.
- testTarget: D(2) dopamine receptor (Homo sapiens) (UniProt P14416)
- experimentalProtocol: HTS Assay for Positive Allosteric Modulators of the Human D2 Dopamine Receptor: Primary Screen for Potentiators
- runConditions: HEK293 T-REx D2, calcium flux, EC20 dopamine potentiation; at 10 µM; stronger effect = higher value
Out of some 340,000 compounds screened, about 1,200 (0.35%) were called active. Many of the other results were omitted from the sample, so actives are more common in it than they were.
Give a bare numeral; the unit % is implied.

- compound: "Cc1sc(C2C(C#N)=C(N)N(c3cccc(Cl)c3)C3=C2C(=O)CCC3)cc1CN1CCOCC1 (centres undefined)"
  testTarget: "D(2) dopamine receptor (Homo sapiens) (UniProt P14416)"
  potentiation / %: -0.593

Report potentiation for COc1cccc(NC(=O)C2C(c3ccccc3)C2(Cl)Cl)c1 (centres undefined) tested on D(2) dopamine receptor (Homo sapiens) (UniProt P14416).
-7.1

Please do the same for Cc1cc2c(=O)n(C)c(SCC(=O)c3cc4ccccc4o3)nc2s1 as well.
30.1

Please answer likewise for CCOC(=O)Cc1csc(NC(=O)CSc2ccc(Br)cc2)n1
-0.963

Let us now turn to O=C1/C(=C/c2cccs2)CCc2ccccc21
1.15

Lookup CN1CCN(C(=O)/C(=C\c2cccs2)NC(=O)c2cccs2)CC1
15.2

====

Known potentiation of a selection of compounds
- testTarget: D(2) dopamine receptor (Homo sapiens) (UniProt P14416)
- experimentalProtocol: HTS Assay for Positive Allosteric Modulators of the Human D2 Dopamine Receptor: Primary Screen for Potentiators
- runConditions: HEK293 T-REx D2, calcium flux, EC20 dopamine potentiation; at 10 µM; stronger effect = higher value
Among all 340,000 compounds or so, about 1,200 (0.35%) were called active. Shown is part of a subset that was picked to be rich in actives.

- compound: "Cc1ccccc1CNC(=O)CCc1cn(Cc2ccccc2C)c2ccccc12"
  potentiation: "-1.4% (inactive)"
- compound: "O=C(Nc1ccc(-c2nnc(-c3ccccc3)o2)cc1)C1CCCO1 (stereo not given)"
  potentiation: "15.5% (inactive)"
- compound: "CC(=O)Nc1cccc(C(=O)OCC(=O)Nc2nnc(-c3ccccc3)o2)c1"
  potentiation: "4.87% (inactive)"
- compound: "O=C(COC(=O)c1ccc(O)cc1O)NNC(=O)c1cccs1"
  potentiation: "-6.83% (inactive)"
- compound: "CCn1c2ccccc2c2cc(NC(=O)COc3ccc(C)cc3C)ccc21"
  potentiation: "-13% (inactive)"

State the recorded potentiation for this entry: C=CCn1cc(-c2cccc(C(F)(F)F)c2)cc(C#N)c1=O
-3% (inactive)

What would you report for COc1ccccc1N1CCN(C(=O)c2cc(-c3ccc(Cl)c(Cl)c3)on2)CC1 ?
69.4% (active)

Try the compound CCOC(=O)C1CCN(c2ncnc3c2c(-c2ccccc2)cn3-c2cccc(C)c2)CC1
-2.84% (inactive)

Same lookup for CCn1c2ccccc2c2cc(CN3CCN(Cc4cccc(Cl)c4)CC3)ccc21 , please.
-11.2% (inactive)

Similarly, CC(C)(C)C(=O)CCN1C(=O)C2(OCCO2)c2ccccc21 ?
31.3% (active)

Follow-up item: Cn1c(=O)[nH]c(=O)c2c1nc(N1CCCCCC1)n2CC(=O)c1ccccc1
-3.5% (inactive)

Also CCOC(=O)CN1CCC(c2ccccc2)CC1 ?
-9.51% (inactive)

Continue with CCN(CC(=O)Nc1ccccc1OC)C(=O)Cn1cnc2ccccc2c1=O
11.8% (inactive)

Follow-up item: O=C(Nc1cccc(-c2nnc(-c3ccccc3)o2)c1)C1CCCO1 (stereo not given)
34% (active)
